Biological target: UniProt P21554
Sequence (P21554 whole entry): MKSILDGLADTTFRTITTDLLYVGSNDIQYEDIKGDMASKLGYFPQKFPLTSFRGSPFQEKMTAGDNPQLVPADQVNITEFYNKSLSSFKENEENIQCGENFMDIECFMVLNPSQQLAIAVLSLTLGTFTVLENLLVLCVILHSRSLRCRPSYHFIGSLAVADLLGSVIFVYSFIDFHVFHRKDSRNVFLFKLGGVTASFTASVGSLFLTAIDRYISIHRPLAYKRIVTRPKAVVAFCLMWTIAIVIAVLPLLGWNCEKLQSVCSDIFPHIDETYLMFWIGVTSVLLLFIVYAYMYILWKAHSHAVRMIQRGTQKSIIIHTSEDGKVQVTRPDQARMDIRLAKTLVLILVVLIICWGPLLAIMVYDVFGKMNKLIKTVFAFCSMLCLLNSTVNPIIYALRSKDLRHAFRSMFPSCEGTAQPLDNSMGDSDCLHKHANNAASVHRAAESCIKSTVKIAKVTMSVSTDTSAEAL
Where a name gives a salt, the structure may show the parent alone.
OBSERVABLE: pIC50
Answers are plain numbers, as −log10 of the molar value.

Give the measured pIC50 of O=C(NN1CC2CCCC2C1)C1=NN(c2ccc(Cl)cc2Cl)[C@@H](c2ccc(Cl)cc2)C1 (stereo partly drawn) .
7.80

Return reported pIC50; argument: O=C(NN1CC2CCCC2C1)C1=NN(c2ccc(Cl)cc2Cl)C(c2ccc(Cl)cc2)C1 (stereo not drawn) [Example 1]
7.90

Attention now turns to another entry.
May I ask what pIC50 has been recorded for O=C(NN1CC2CCCC2C1)C1=NN(c2ccc(Cl)cc2Cl)C(c2ccc(Cl)cc2)C1 (stereo not drawn) [1 (HCl)] ?
7.15
